Test system: HCC-2998 colon
ASSAY_INFO: NCI tumour cell line growth inhibition, 48 h
Where a SMILES comes first, the peptide text is derived from it. The star is where a group is joined. Palmitoyl = CCCCCCCCCCCCCCCC(=O)*
Here, each record is paired with measured TGI data.
EXPERIMENTAL_ENDPOINT: TGI

MOLECULE | EXPERIMENTAL_ENDPOINT | RESULT_VALUE
Cc1ccc(-c2nc([P+](c3ccccc3)(c3ccccc3)c3ccccc3)c(S(=O)(=O)c3ccc(C)cc3)o2)cc1 | TGI | 3.01 µM
CCOC(=O)C1(C(=O)OCC)[C@@H](c2ccccc2)C2=NO[C@@H]3CCC[C@H]1[C@H]23 | TGI | 50.2 µM
CC1(c2ccccc2Cl)C(C#N)C(=O)NC(=O)C1C#N (stereo not drawn) | TGI | > 100 µM
O=[N+]([O-])c1ccc(N2CCOCC2)c2c1no[n+]2[O-] | TGI | 7.25 µM
C[C@]12C[C@@H](OC(=O)[C@]1(C)O)[C@@H]([C@]1(O)CC[C@H]3[C@@H]4C[C@H]5O[C@]56C[C@H]5O[C@H]5C(=O)[C@]6(C)[C@H]4CC[C@@]31C)C2 | TGI | > 50 µM
COc1cc(C(C)O)c[n+](Cc2ccccc2)c1 (stereo not drawn) | TGI | > 100 µM
Nc1ccc2c(c1)nc1n2C(c2c(F)cccc2F)SC1 (stereo not drawn) | TGI | > 100 µM
CCCCCO/N=C\c1c2c(O)c3c(O)c(C)c4c(c3c1O)C(=O)C(C)(O/C=C\C(OC)C(C)C(OC(C)=O)C(C)C(O)C(C)C(O)C(C)/C=C\C=C(\C)C(=O)N2)O4 (stereo not drawn) | TGI | 3.08 µM
CCCCCCCCCCCCCCCC(=O)N1CCCC1C(=O)NCC(=O)NC(Cc1ccccc1)C(=O)NC(C)C(=O)NC(CO)C(=O)NC(Cc1ccc(O)cc1)C(=O)NC(CCCCN)C(=O)NC(CC(C)C)C(=O)NC(CCCN=C(N)N)C(=O)N1CCCC1C(=O)NCC(N)=O (stereo not drawn) (Palmitoyl-PGFASYKLRPG-NH2; configuration not given here) | TGI | 28.9 µM
CSC(=S)Nc1cccc(C)n1 | TGI | > 100 µM
COC(=O)[C@@]1(C(C)CC(=O)O)CCCCC1=O (stereo partly drawn) | TGI | > 100 µM
CCC(=O)C(CCN1CCC2(CCCc3ccccc32)CC1)(c1ccccc1)c1ccccc1 | TGI | 7.44 µM
Cc1nc2ccc(C(F)(F)F)cc2nc1NCc1ccc(Cl)c(Cl)c1 | TGI | 22.3 µM
CC1OC(OC2C(O)CC(OC3C(O)CC(OC4CCC5(C)C(CCC6C5CC(O)C5(C)C(C7=CC(=O)OC7)CCC65O)C4)OC3C)OC2C)CC(O)C1O (stereo not drawn) | TGI | 0.451 µM
Cc1c(-c2ccccc2)[nH]c2cc(Cl)ccc2c1=O | TGI | > 100 µM
Cc1nc(C(=O)O)c2ccccc2n1 | TGI | > 100 µM
O=C1Cc2c([nH]c3ccc(Br)cc23)-c2cc(O)c(O)cc2N1 | TGI | > 100 µM
C/C(=N/N=C(\[O-])c1ccncc1)C(F)(F)F.C/C(=N\N=C(/[O-])c1ccncc1)C(F)(F)F.[Ni+2] | TGI | > 1 µM
NC(=O)C(=O)C1CCC2=C(Sc3ccccc3N2)C1=O (stereo not drawn) | TGI | > 100 µM
NS(=O)(=O)c1nnc(NS(=O)(=O)C(F)(F)F)s1 | TGI | > 100 µM
O=C(CCCCCCN1CC(=O)N2[C@@H](c3ccc(Cl)c(Cl)c3)c3[nH]c4ccccc4c3C[C@H]2C1=O)NO | TGI | 8.38 µM
CC1=C(CC(=O)c2cccc([N+](=O)[O-])c2)C(=O)c2ccccc2C1=O | TGI | > 100 µM
Cc1cc(C)nc(NS(=O)(=O)c2ccc(Nc3c4ccccc4nc4c(C(=O)Nc5ccc(S(=O)(=O)N=C(N)N)cc5)cccc34)cc2)n1 | TGI | > 100 µM
COC(=O)c1cc2c(c3c1CC(Cc1ccccc1)C3=O)CCC2 (stereo not drawn) | TGI | > 100 µM
c1ccc(-c2nc(N3CCNCC3)c3oc(-c4ccccc4)nc3n2)cc1 | TGI | 3.05 µM
C[N+](C)(C)c1ncnc2c1ncn2C1CC(O)C(CO)O1 (stereo not drawn) | TGI | > 100 µM
O=S(=O)(c1cccc(N=C=S)c1)c1cccc(N=C=S)c1 | TGI | 46.7 µM
C[C@]12CC[C@@H]3c4cc(OC(F)F)c(OS(N)(=O)=O)cc4CC[C@H]3[C@@H]1CC[C@@H]2O | TGI | 14 µM
Cn1c(-c2ccccc2)cc(-c2cccs2)c1-c1cccs1 | TGI | > 100 µM
O=C(O)Cc1cccnc1 | TGI | > 100 µM
COC1=C(OC)C(=O)C(SC/C=C(\C)CCCC(C)CCCC(C)CCCC(C)C)=CC1=O (stereo not drawn) | TGI | > 100 µM
Oc1cccc2ccc(N/N=C/c3cc(CN4CCOCC4)c(O)c4ncccc34)nc12 | TGI | 1.93 µM
Cc1cc(C)nc(SC2=C(Nc3cc(Cl)ccc3O)C(=O)N(Cc3ccccc3)C2=O)n1 | TGI | > 160 µM
CN1C(c2ccccc2)CC(=O)C(N)C1c1ccccc1 (stereo not drawn) | TGI | 43.3 µM
CC1(C)OC(=S)N(c2ccccc2)C12C=Cc1ccccc1O2 (stereo not drawn) | TGI | > 100 µM
O=c1[nH]nc(Cc2ccccc2)n1C1CCCC1 | TGI | > 100 µM
COc1cc2c(cc1OC)-c1ncc3c(OC)c(OC)c(OC)cc3c1C2 | TGI | > 100 µM
Clc1cc(Cl)cc(N=C/C=C/Nc2cc(Cl)cc(Cl)c2)c1 | TGI | 33.4 µM

---

Reported TGI by item:
Test system: A498 renal
ASSAY_INFO: NCI tumour cell line growth inhibition, 48 h
EXPERIMENTAL_ENDPOINT: TGI

MOLECULE | RESULT_VALUE
NS(=O)(=O)c1ccc(-c2cc3ccncc3cc2OCc2ccccc2)cc1 | > 25 µM
Cc1cc[n+]2c(c1)-c1cc(C)cc[n+]1CC2 | > 100 µM
CC(=O)OCCOCNC(=S)N/N=C/c1cc(Br)cs1 | > 100 µM
COc1cc(O)c2c(=O)c(O)c(-c3ccc(O)c(OC)c3)oc2c1 | > 100 µM
Oc1[nH]c2ccccc2c1N=NC(=S)Nc1ccccc1Cl | 35.4 µM
Oc1ccc(C(c2ccc(O)cc2)c2ccc(Br)cn2)cc1 | 16.1 µM
COC1=C(OC)C(=O)C(SC/C=C(\C)CCCC(C)CCCC(C)CCCC(C)C)=CC1=O (stereo not drawn) | 6.05 µM
CC1=C(CC(=O)c2cccc([N+](=O)[O-])c2)C(=O)c2ccccc2C1=O | > 100 µM
Cc1ccc(S(=O)(=O)N/N=C(/CC(=O)c2c(C)n([O-])c3ccccc3[n+]2=O)C(=O)Nc2ccccc2C)cc1 | > 100 µM
NC(=O)C(=O)C1CCC2=C(Sc3ccccc3N2)C1=O (stereo not drawn) | > 100 µM
CCOC(=O)c1sc2nc(SC)nc3c2c1NCN3c1ccc2c(c1)OCO2 | 87.4 µM
COc1ccc(NC(=O)C2CCC(CNS(=O)(=O)c3ccccc3)CC2)cc1OC (stereo not drawn) | > 100 µM
COCCNC(=O)C1C(=O)C(=O)N(CCOC)C1=O (stereo not drawn) | > 100 µM
Cc1cn(CCCCC2=NCCCN2)c(=O)[nH]c1=O | > 49.4 µM
COc1cc(/C=C/C(=O)c2cccc(-n3cc(-c4ccc(Cl)cc4)[nH]c3=O)c2)cc(OC)c1OC | > 100 µM
COc1ccc(N(CC(=O)NCCC[Te]c2ccccc2)C(=O)CNC(=O)OC(C)(C)C)cc1 | 5.35 µM
O=C(O)Cc1cccnc1 | > 100 µM
ClCCN(CCCl)c1ccc(/C=N/Nc2ccnc3ccccc23)cc1 | 46.7 µM
CC12CCC(=O)N1c1ccc([N+](=O)[O-])cc1N2 (stereo not drawn) | > 100 µM
O=C(O)CCC(=O)c1ccc2sc3ccccc3c2c1 | > 100 µM
CC(N)Cc1ccc(Cl)c(Cl)c1 (stereo not drawn) | > 90.6 µM
COc1cc2nc(-c3cc(F)ccc3O)nc(N[C@@H]3CNC[C@H]3C(C)(C)O)c2cc1OC | 2.6 µM
Oc1ccc2cc(Br)ccc2c1-c1c(O)ccc2ccc(Br)cc12 | 32.1 µM

---

Entries and their measured TGI follow.
System: HL-60(TB) leukemia
ASSAY_INFO: NCI tumour cell line growth inhibition, 48 h

COMPOUND | LIMIT_SIGN | TGI (µM)
COC(=O)C1=C(OC(=O)/C(=C/c2ccc(Cl)cc2)c2ccc(Cl)cc2)C(C(=O)OC)[C@]2(O)[C@@H](C(=O)OC)[C@H]1C[C@@H](c1ccccc1)[C@@H]2C(=O)OC (stereo not given in full) | > | 100
NC(=O)C(=O)C1CCC2=C(Sc3ccccc3N2)C1=O (stereo not given) | > | 100
Cc1cccc2c3c(sc12)C(c1ccc(Cl)cc1)C(C#N)=C(N)O3 (stereo not given) | = | 1.21
O=C(CC1(O)C(=O)N(Cc2ccccc2)c2ccccc21)c1ccc(C(=O)NCC2CCC3(CC2)OOC2(CCCCC2)OO3)cc1 (stereo not given) | = | 2.09
c1ccc(-c2nc(N3CCNCC3)c3oc(-c4ccccc4)nc3n2)cc1 | = | 4.26
N#Cc1c2c(c(N)oc1=O)C(c1ccccc1)CC(=O)N2 (stereo not given) | > | 100
C[CH2][Sn]([CH2]C)([O]C(=O)c1ccccc1OC)[O][Sn]([CH2]C)([CH2]C)[O]C(=O)c1ccccc1OC | > | 100
CCCC1CCC(=C2C(=O)CCC2=O)O1 (stereo not given) | > | 100
O=C(/C=C/c1ccc(Oc2cc(C(=O)/C=C/c3ccc(O)cc3)c(O)cc2O)cc1)c1ccc(O)cc1O | > | 100
C[C@]12C[C@@H](OC(=O)[C@]1(C)O)[C@@H]([C@]1(O)CC[C@H]3[C@@H]4C[C@H]5O[C@]56C[C@H]5O[C@H]5C(=O)[C@]6(C)[C@H]4CC[C@@]31C)C2 | > | 50
COc1ccc(/C=C(\C#N)n2nnc3c(F)cccc32)cc1 | = | 0.82
CCC(=O)C(CCN1CCC2(CCCc3ccccc32)CC1)(c1ccccc1)c1ccccc1 | = | 5.12
COc1ccc(OC)c(N(CN2C(=O)CCC2C(=O)O)C(C)=O)c1 (stereo not given) | > | 100
Oc1cccc2ccc(N/N=C/c3cc(CN4CCOCC4)c(O)c4ncccc34)nc12 | = | 1.49
COC(=O)[C@@]1(C(C)CC(=O)O)CCCCC1=O (stereo not given in full) | > | 100
Nc1ccc2c(c1)nc1n2C(c2c(F)cccc2F)SC1 (stereo not given) | > | 100
CCOC(=O)C(C(=O)OCC)=C1NC2(c3ccccc3Nc3ccccc32)C(C#N)S1 (stereo not given) | = | 55.5
Cc1cn(CCCCC2=NCCCN2)c(=O)[nH]c1=O | > | 19.7
Cc1ccccc1NC(=O)C(=O)C(C#N)c1ccccc1C (stereo not given) | > | 100
C=C1CC(c2ccc(OCCCN3C(=O)c4ccccc4C3=O)cc2)OC1=O (stereo not given) | = | 5.22
